assay: Caco-2 permeability test; type: in vitro ADME, human; conditions: human; Caco-2, 2.4 μM
quantityMeasured: efflux ratio at 2 h, 2.4 μM

# input molecule: COC(=O)N(C)c1c(N)nc(-c2nn(Cc3ccccc3F)c3ncccc23)nc1N [Comparative example 2 (Riociguat)] ; wanted: its efflux ratio at 2 h, 2.4 μM
11

---

assay: E-2.3 inhalative, oral and intravenous single doses in healthy male subjects: plasma concentrations and lung deposition; assay type: in vivo, human; conditions: male, human, plasma, po, 1000 μg, healthy male subjects, single 1000 μg oral, N = 16; 15 h after dose; read-out: Geometric mean of plasma concentrations
quantityMeasured: concentration at 15 h (ng/mL)
Please reply with the bare figure in ng/mL and do not write the unit itself.

Recorded concentration at 15 h of O=C(O)c1ccc(CCN(CCc2ccccc2OCc2ccc(-c3ccc(C(F)(F)F)cc3)cc2Cl)[C@H]2CCCc3nc(C(=O)O)ccc32)cc1 [example 4] , please.
0.0714
